These data points were gathered from patent US12286632B2.

Assay summary: in vitro
Condition notes: human, HeLa cells, Cell viability (%) (±St Dev.; n = 3)
Ends that are not written are not given here.
Reported property: viability (%)

Sequence code	Reported property	Numeric value
LLKLWSRLLKLWTQGGSGGGSGRRLKAKRAKA [FSD18]	viability	82.4
HHHHHHKWKLARAFARALRAIKKLYARALRRQARTG [FSD11]	viability	60.9
HHHHHHKWKLARAFARAIKKLYARALRRQARTGHHHHHH [FSD9]	viability	67.3
HHHHHHLLKLWSRLLKLWTQGRRLKAKRAKAHHHHHH [FSD5]	viability	86
HHHHHHKWKLARAFARAIKKLYARALRRQARTG [FSD8]	viability	64.8
KWKLARAFARAIKKLYARALRRQARTG [FSD12]	viability	67.8

----------
Assay summary: in vitro
Condition notes: human, REC-1 cells
Ends that are not written are not given here.

Sequence code	viability at 0.5 h, 10 µM [%]
LLKLWSRLLKLWTQGGSGGGSGRRLKAKRAKA [FSD18]	25

----------
Assay summary: in vitro
Condition notes: NK cells
Ends that are not written are not given here.
Reported property: viability at 0.5 h, 2 µM (%)

Sequence code	Numeric value
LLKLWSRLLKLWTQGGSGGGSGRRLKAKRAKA [FSD18]	98.3

----------
Assay summary: in vitro
Condition notes: human, HeLa cells
Bridge positions count the residues as written; N and C are the ends. Ends that are not written are not given here. I, II: the chains in the order shown.
Reported property: viability

Substance	Reported property	Result
HHHHAAVLKLWKRLLKLFRKGRRLKAKRAKAKR [FSD20]	viability	20.5%
ALLGLFIKWVKKVGTLFRKAKAGAQNRRAKAQKGK [FSD26]	viability	97.2%
HHHHHHKWKLFKKIGAVLKVLTTGYGRKKRRQRRR [His-CM18-TAT]	viability	13.6%
KWKLFKKIGAVLKVLTTGYARAAARQARAHHHHHH [CM18-PTD4-His]	viability	29.5%
KWKLFKKIGAVLKVLTTGYGRKKRRQRRRC [CM18-TAT-Cys]	viability	96.3%
LHHHHHKLIHIWEAKLAKALAKALARRAAARQARA [FSD41]	viability	94.4%
HHHKWKLFKKIGAVLKVLTTGYARAAARQARA [3His-CM18-PTD4]	viability	82%
HHHHHHWARLARAFARAIKKLYARALRRQARTG [FSD7]	viability	60.9%
HHHHHHHHRQRRRWEARGGFLGGGGYARAARQARA [FSD33]	viability	75.3%
HHHHHHCMKVVWEIVLAKYKGGGGRARAASRRARA [FSD42]	viability	96.7%
HHHHHHKWKLFWEAKLAKYARAAARQARAARQARA [FSD27]	viability	98%
I: KWKLFKKIGAVLKVLTTGRQIKIWFQNRRMKWKKC / II: KWKLFKKIGAVLKVLTTGRQIKIWFQNRRMKWKKC (disulfide I:35-II:35) [dCM18-Pen-Cys]	viability	3.36%
KWKLFKKIGAVLKVLTTGGGSYARAAARQARA [CM18-L1-PTD4]	viability	84.3%
KWKLFKKIGAVLKVLTTGYARAAARQARA [CM18-PTD4]	viability	49.6%
KWKLARAFARAIKKLGGSGGGSYARALRRQARTG [FSD10]	viability	72.4%
KWKLARAFARAIKKLYARALRRQARTG [FSD12]	viability	58.6%
HHHHHHLLKLWSRLLKLWTQGRRLKAKRAKAHHHHHH [FSD5]	viability	93.2%
YGRKKRRQRRRCKWKLFKKIGAVLKVLTTG [TAT-CM18]	viability	44.8%
WEAKLAKALAKALAKHLAKALAKALKACEA [KALA, reference compound]	viability	90.6%
KWKLFKKIGAVLKVLTTGGGSGGGSYARAAARQARA [CM18-L2-PTD4]	viability	93.7%
KWKLFKKIGAVLKVLTTGGGSGGGSGGGSGYARAAARQARA [CM18-L3-PTD4]	viability	98.4%
